Catalogue of compounds with associated MIC
Tested on: Pseudomonas aeruginosa
assay_summary: Antibacterial activity Pseudomonas aeruginosa NCIM 2036 after 24 hrs by NCCLS method
Format: functional
conditions_used: NCIM 2036, 24 h
recorded_endpoint: MIC (µg/mL)

* O=C(O)c1cn(C2CC2)c2cc(N3CCNCC3)c(F)cc2c1=O | 16
* O=[N+]([O-])c1ccc(/C(Cn2cncn2)=N\Nc2nc(-c3ccc(Br)cc3)cs2)cc1 | 64
* O=[N+]([O-])c1ccc(/C(Cn2cncn2)=N\Nc2nc(-c3ccc([N+](=O)[O-])cc3)cs2)cc1 | 64
* FC(F)(F)c1cc(/C(Cn2cncn2)=N\Nc2nc(-c3ccc(Br)cc3)cs2)cc(C(F)(F)F)c1 | 32
* Clc1ccc(/C(Cn2cncn2)=N\Nc2nc(-c3ccc(Cl)cc3)cs2)cc1 | 16

* * *

System: Candida albicans
assay_summary: Antifungal activity Candida albicans NCIM 3471 after 24 to 72 hrs by NCCLS method
Format: functional
Calls of active or inactive are those of the source. The rule behind the calls is not given here.
recorded_endpoint: MIC

• Brc1ccc(/C(Cn2cncn2)=N\Nc2nc(-c3ccc(Br)cc3)cs2)cc1 = > 64 µg/mL
• Clc1ccc(-c2csc(N/N=C(/Cn3cncn3)c3ccc(Br)cc3)n2)cc1 = 64 µg/mL
• C[C@@H](c1nc(-c2ccc(C#N)cc2)cs1)[C@](O)(Cn1cncn1)c1ccc(F)cc1F [RAVUCONAZOLE] = 1 µg/mL
• O=[N+]([O-])c1ccc(/C(Cn2cncn2)=N\Nc2nc(-c3ccc(Br)cc3)cs2)cc1 = inactive
• O=[N+]([O-])c1ccc(-c2csc(N/N=C(/Cn3cncn3)c3ccc(Br)cc3)n2)cc1 = inactive
• FC(F)(F)c1cc(/C(Cn2cncn2)=N\Nc2nc(-c3cc(C(F)(F)F)cc(C(F)(F)F)c3)cs2)cc(C(F)(F)F)c1 = 64 µg/mL
• Clc1ccc(/C(Cn2cncn2)=N\Nc2nc(-c3ccc(Br)cc3)cs2)cc1 = inactive
• Fc1ccc(-c2csc(N/N=C(/Cn3cncn3)c3ccc(Br)cc3)n2)cc1 = 64 µg/mL

* * *

Tested on: Aspergillus niger
assay_summary: Antifungal activity Aspergillus niger NCIM 545 after 24 to 72 hrs by NCCLS method
Assay type: functional
Catalogue of compounds with associated MIC
recorded_endpoint: MIC

• Fc1ccc(-c2csc(N/N=C(/Cn3cncn3)c3cc(C(F)(F)F)cc(C(F)(F)F)c3)n2)cc1 = 32 µg/mL
• FC(F)(F)c1cc(-c2csc(N/N=C(/Cn3cncn3)c3ccc(Cl)cc3)n2)cc(C(F)(F)F)c1 = > 64 µg/mL
• FC(F)(F)c1cc(/C(Cn2cncn2)=N\Nc2nc(-c3ccc(Cl)cc3)cs2)cc(C(F)(F)F)c1 = 16 µg/mL

* * *

Test system: Aspergillus niger
assay_summary: Antifungal activity Aspergillus niger NCIM 545 after 24 to 72 hrs by NCCLS method
Format: functional
Calls of active or inactive are those of the source. The calls are words filed in the database; no cut-off is given here.
recorded_endpoint: MIC

- Fc1ccc(-c2csc(N/N=C(/Cn3cncn3)c3ccc(Br)cc3)n2)cc1: > 64 µg/mL
- O=[N+]([O-])c1ccc(/C(Cn2cncn2)=N\Nc2nc(-c3ccc(Cl)cc3)cs2)cc1: inactive
- Fc1ccc(/C(Cn2cncn2)=N\Nc2nc(-c3ccc(F)cc3)cs2)cc1: 16 µg/mL
- O=[N+]([O-])c1ccc(/C(Cn2cncn2)=N\Nc2nc(-c3ccc(Br)cc3)cs2)cc1: inactive
- O=[N+]([O-])c1ccc(-c2csc(N/N=C(/Cn3cncn3)c3ccc(Cl)cc3)n2)cc1: > 64 µg/mL
- Clc1ccc(/C(Cn2cncn2)=N\Nc2nc(-c3ccc(Br)cc3)cs2)cc1: 64 µg/mL
- O=[N+]([O-])c1ccc(-c2csc(N/N=C(/Cn3cncn3)c3ccc(F)cc3)n2)cc1: > 64 µg/mL
- C[C@@H](c1nc(-c2ccc(C#N)cc2)cs1)[C@](O)(Cn1cncn1)c1ccc(F)cc1F: 32 µg/mL
- Fc1ccc(/C(Cn2cncn2)=N\Nc2nc(-c3ccc(Br)cc3)cs2)cc1: 64 µg/mL
